Catalogue of variants with associated self-cleavage kobs at 10000 uM GlcN6P
B1: glmS ribozyme (parent)
chain: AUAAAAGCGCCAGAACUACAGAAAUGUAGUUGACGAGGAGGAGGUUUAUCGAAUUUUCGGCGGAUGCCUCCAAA

- Variants of: B1
- MEASUREMENT DESCRIPTION: self-cleavage kobs at 10000 uM GlcN6P; higher = faster cleavage; RNA array
- RUN CONDITIONS: with glucosamine-6-phosphate
Variants at the floor of the assay were thinned out.

[
  {
    "MUTATION CODE": "G13U G37U G40A U69G",
    "self-cleavage kobs at 10000 uM GlcN6P": "< 1e-05 s⁻¹"
  },
  {
    "MUTATION CODE": "C10A G43C",
    "self-cleavage kobs at 10000 uM GlcN6P": "< 1e-05 s⁻¹"
  },
  {
    "MUTATION CODE": "G37U A48U C68A",
    "self-cleavage kobs at 10000 uM GlcN6P": "< 1e-05 s⁻¹"
  }
]

Exam item: Quick one: self-cleavage kobs at 10000 uM GlcN6P for A12G U56G ?
Marked response: 0.000553 s⁻¹

Exam item: Any idea what self-cleavage kobs at 10000 uM GlcN6P was measured for G32U A53C ?
Marked response: 0.000275 s⁻¹

Exam item: What measured self-cleavage kobs at 10000 uM GlcN6P goes with G41C U57G ?
Marked response: < 1e-05 s⁻¹

Exam item: Report self-cleavage kobs at 10000 uM GlcN6P for G32U A36G G59A please.
Marked response: < 1e-05 s⁻¹
